Protocol text: Thermal rearrangement, pentane extracts from Actinidia flowers injected at different port temperatures
Assay type: physicochemical
Experimental parameters: injection port temperature 210 °C
A collection of compounds and their measured Peak Area

| Compound | Peak Area |
| --- | --- |
| CC(C)=C1C/C=C(\C)CC/C=C(\C)CC1 | 3.92 × 10^6 |
| C=C1C=CC(C(C)C)CCC(C)=CCC1 (stereo not shown) | 2.42 × 10^7 |
| C=C[C@@]1(C)CCC(C(C)C)=C[C@@H]1C(=C)C | 4.14 × 10^6 |
| C=C[C@]1(C)CC[C@@H](C(C)(C)O)C[C@H]1C(=C)C | 3.78 × 10^7 |

====

Protocol text: Thermal rearrangement, pentane extracts from Actinidia flowers injected at different port temperatures
Assay type: physicochemical
Experimental parameters: injection port temperature 150 °C
Experimental: Whole flowers of the same plants were also harvested at anthesis in 2000. 18.6 g and 21 g of flowers from a mixture of developmental stages were placed in 2× Quickfit® Erlenmeyer flasks as above. […] The trap was stored at −15° C. for one week and then analysed by GC-FD/MS. The same petals (1.99 g) were then extracted with pentane-ether (2 ml) and stored at −20° C. until analysed. […] The extract was analysed by GC-FID/MS. […]
Value kind: Peak Area

| Compound | Result |
| --- | --- |
| C=C1C=CC(C(C)C)CCC(C)=CCC1 (stereo not shown) [Germacrene D] | 3.87 × 10^7 |
| CC(C)=C1C/C=C(\C)CC/C=C(\C)CC1 [Germacrene B] | 1.0 × 10^7 |
